- TARGET: Neu5Ac(a2-8)Neu5Ac
- ASSAY NOTES: glycan array binding signal (z-score within array); higher = stronger binding
- CONDITION DETAILS: glycan notation: IUPAC condensed, linker removed
This excerpt belongs to a sample that is enriched for the strongest signals.
// reported glycan array binding signal (z-score) per item
In your answer, state the number alone without any accompanying words.

## Input Consider the binder ASAL (Allium sativum), P83886 (protein) MGRTTSSPKAMMRIATVAAILTILASTCMARNVLTNGEGLYAGQSLDVEQYKFIMQDDCNLVLYEYSTPIWASNTGVTGKNGCRAVMQRDGNFVVYDVNGRPVWASNSVRGNGNYILVLQKDRNVVIYGSDIWSTGTYRRSVGGAVVMAMNGTVDGGSVIGPVVVNQNVTAAIRKVGTGAA and give its measured glycan array binding signal (z-score).
## Output -0.25

## Input Consider the binder Tectonin 2 (Laccaria bicolor) (protein) MPWKGISGSLSRISAGSVTNVWGVNAANNIYRYTGDDAKPWVQIPGALTDIGAAADGTVWGVNAAGNIYRYVWDSNHWTQIKGALKRISAGSRTNVWGVNAGGAIYRYTGDDANPWVQIPGVLSDIGAGADGTVWGVNAAGEIYRYTGDQGDPNHWVKIPGALSAISAGIKTNVWGVNSANNIYTSTGDDKNPWLGIGGSLVDIGAGTDGVVWGVNAGGGIYRWIRD and give its measured glycan array binding signal (z-score).
## Output -0.07

## Input Consider the binder XL-35 (Xenopus laevis) (protein) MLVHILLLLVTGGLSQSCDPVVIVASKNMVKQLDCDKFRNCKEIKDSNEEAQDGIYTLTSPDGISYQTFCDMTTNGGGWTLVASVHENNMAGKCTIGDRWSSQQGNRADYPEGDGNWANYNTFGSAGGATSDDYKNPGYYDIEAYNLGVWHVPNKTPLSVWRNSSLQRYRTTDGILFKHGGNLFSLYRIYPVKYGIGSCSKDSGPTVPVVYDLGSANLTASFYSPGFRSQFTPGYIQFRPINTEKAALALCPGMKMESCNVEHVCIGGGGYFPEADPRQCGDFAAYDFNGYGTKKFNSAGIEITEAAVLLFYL and give its measured glycan array binding signal (z-score).
## Output -0.216
